Data origin, for the record: patent US7595404B2

Some molecules, each annotated with its measured % damage, Sinapis.
# System: Sinapis
# test details: Post-emergence test, Sinapis
# Format: in vivo
# assay conditions: post-emergence/greenhouse; 250 g a.i./ha; after three weeks
Write the answer as a number in %, unit excluded.

{"smiles repr": "CCOC(=O)OC1=C(c2nc(-c3ccc(Cl)cc3)sc2C)C(=O)CC1(C)C", "target": "Sinapis", "assay value": 70}
{"smiles repr": "Cc1sc(-c2ccc(Cl)cc2)nc1C1=C(O)C2(CCCCC2)CC1=O", "target": "Sinapis", "assay value": 80}
{"smiles repr": "CCOC(=O)OC1=C(c2nc(-c3ccc(Cl)cc3)sc2CC)C(=O)CC12CCCCC2", "target": "Sinapis", "assay value": 80}
{"smiles repr": "Cc1sc(-c2ccc(Cl)cc2)nc1C1=C(O)C(C)(C)CC1=O", "target": "Sinapis", "assay value": 70}

Switching to the query record.
Please fill in: % damage, Sinapis reported for "CCc1sc(-c2ccc(Cl)cc2)nc1C1=C(O)C2(CCCCC2)CC1=O" = 80
